# procedure_details: S. cerevisiae RM11-1a growth modifiers, primary screen, strain RM11-1a, OD600, basal, 24 h (AID 1177);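 also: cultures grown under basal conditions with no added stressor; test concentration not given here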
# experimental_conditions: OD600, 24 h, higher = more signal, called active from +8 up or from −8 down
The source made the active and inactive calls.
z-score overview

# z-score lookup, item O=C1C2C=CC(C(O)c3ccc(Br)cc3)N(Nc3ccccc3F)C2C(=O)N1c1ccccc1 (stereo unspecified) -1.17 (inactive)

Then this compound: `COc1ccc(CCNC(=O)[C@@H]2c3ccccc3C(=O)N(Cc3cc(C(F)(F)F)cc(C(F)(F)F)c3)[C@H]2c2ccc(CO)cc2)cc1` 0.864 (inactive)

* * *

# study_target: Carbonic anhydrase 2 (Homo sapiens) (UniProt P00918)
# procedure_details: CAII small-molecule binders, profiling panel, biochemical, small-molecule microarray, Alexa647-labelled CAII (AID 1122)
# experimental_conditions: CAII-A647 binding fluorescence, higher = more signal
Entries and their measured composite z-score follow.
Please reply with the value in numeric form only.

1. CO[C@]12C=C(Br)[C@@H](C[C@@H]1c1cccc(C)c1)[C@@]1(CO1)C2=O
0.354
2. CCCCO[C@H]1C[C@H]2C(I)=C[C@@H]1C(=O)[C@]21CO1
-0.302
3. CC(C)[Si](C#C[Si](C(C)C)(C(C)C)C(C)C)(O[C@H](C)c1cn([C@H](CO)Cc2ccccc2)nn1)C(C)C
0.0728
4. NC(=O)NCC#Cc1ccc2c(c1)[C@]1(C(=O)N2)[C@H](C(=O)O)[C@H]2C(=O)O[C@H](c3ccccc3)[C@H](c3ccccc3)N2[C@@H]1c1ccc(OCCO)cc1
0.355
5. O=C(CS)NCCCCCNC(=O)[C@@H]1C[C@@H]2C(=O)N3CCC[C@H]3C(=O)N2[C@@H]1c1cccc(OCCO)c1
0.747

Attention now shifts to the item below.
May I ask what composite z-score has been recorded for CN(C)c1ccc(C(O)C2C=CC3C(=O)N(c4ccccc4)C(=O)C3N2Nc2ccc([N+](=O)[O-])cc2)cc1 (stereo unspecified) ? 0.27

* * *

# procedure_details: basal MM1S mitochondrial membrane potential changes, profiling panel, cell-based, JC-1 fluorescence, 24 h, 100 nL compound (AID 1170); also: test concentration not given here
# experimental_conditions: higher = more signal
measurement_name: z-score
Respond with the number and no other words.

1. OCCCC1=CC(c2ccc(CN3CCCC3)cc2)N(Cc2sc3ccccc3c2Cl)CC1 (configuration not stated)
-0.356

Would you mind telling me what z-score value was observed for `C=CCOC(=O)[C@H]1[C@@H]2C(=O)O[C@@H](c3ccccc3)[C@@H](c3ccccc3)N2[C@@H](c2ccc(OCCOC(=O)[C@H]3C[C@H]4C(=O)N[C@@H](CCCCNC(C)=O)C(=O)N4[C@H]3c3ccc(O)cc3)cc2)[C@]12C(=O)Nc1ccccc12` ? -0.175

Next compound: `O=C1O[C@H](c2ccccc2)[C@H](c2ccccc2)N2[C@H]1[C@@H](C(=O)Nc1nc3ccccc3s1)[C@]1(C(=O)Nc3ccccc31)[C@H]2c1ccc(OCCO)cc1` -1.83

Similarly, O=C1OCC=C[C@H]2OC34C=CCN(Cn5nnc6ccccc65)C(=O)[C@H]3N(CCCO)C(=O)[C@@H]4[C@@H]12 (some centres not stated) ? -1.33

* * *

# study_target: Neurogenic locus notch homolog protein 3 (Homo sapiens)
# procedure_details: NOTCH3 binders on small-molecule microarray, primary screen, biochemical, 635/667 nm fluorescence (AID 1096)
# experimental_conditions: NOTCH3 binding, 635 nm fluorescence, higher = more signal
Measured composite z-score, listed per entry for reference.
Output: the number by itself.

1. C=CCOC(=O)[C@H]1[C@@H]2C(=O)O[C@@H](c3ccccc3)[C@@H](c3ccccc3)N2[C@@H](c2ccc(OCCOC(=O)[C@@H]3C[C@@H]4C(=O)N[C@@H](CCCCNC(C)=O)C(=O)N4[C@@H]3c3ccc(O)cc3)cc2)[C@]12C(=O)Nc1ccc(I)cc12
0.981
2. COC(=O)[C@@]1(Cc2ccc(OC)cc2)[C@H]2c3cc(C(=O)N(C)C)n(CCO)c3C[C@H]2CN1C(=O)c1ccccc1
-0.175
3. COC(=O)c1c(CC[C@@H](CO)NC(=O)N[C@H](Cn2cc(C3(O)CCCCC3)nn2)C(C)C)oc(C(C)=O)c1C(=O)OC
1.08
4. CCOC(=O)C[C@H]1[C@H](OC(=O)c2ccccc2-c2ccccc2)[C@@H](NC(=O)C2CCCCC2)c2cc(OCCCO)ccc2N1C(=O)Cc1ccc(OC)cc1
-0.292

Which composite z-score is reported for this compound? `CCOC(=O)C1=CC[C@@H](c2ccccc2C(F)(F)F)N(S(=O)(=O)c2ccc(C)cc2)[C@H]1c1ccc(C#N)cc1` 1.03

# iterate: `O=C1O[C@@H](c2ccccc2)[C@@H](c2ccccc2)N2[C@@H](c3ccc(O)cc3)[C@]3(C(=O)Nc4ccc(C#CC5=CCCCC5)cc43)[C@@H](C(=O)NC[C@H](O)c3ccccc3)[C@H]12` 1.07

Now this one: COc1ccc(C(O)C2C=CC3C(=O)N(c4ccccc4)C(=O)C3N2Nc2ccc([N+](=O)[O-])cc2)cc1 (configuration not stated) 1.1

What do we get for `COCCCNC(=O)[C@]1(CCS(=O)(=O)c2ccccc2)N=C(c2ccc(OCCCO)cc2)O[C@@H]1c1ccccc1CN=[N+]=[N-]` ? 1.02

Please answer likewise for `C=CCN1C(=O)[C@@]2(O[C@@H](CCn3cc([C@H](O)c4ccccc4)nn3)[C@H]([Si](C)(C)c3ccc(OC)cc3)[C@H]2C)c2cc(N3CCC3=O)ccc21` -0.681

Next up: CC1CC/C=C\[C@H]2OC34C=CCN(C(C)C)C(=O)[C@H]3N(CCCCCCO)C(=O)[C@@H]4C2C(=O)O1 (some centres not stated) -0.514

Record: `COc1ccc(NC(=O)O[C@H]2[C@H](OC(=O)Nc3ccccc3)[C@@H](OC(=O)Nc3ccccc3)[C@@H](OC)O[C@@H]2CO)cc1` 0.822

And for `CC(C)(C)OC(=O)CC[C@]1(C(=O)NCc2ccccc2)N=C(c2ccc(OCCCO)cc2)O[C@H]1c1ccccc1CN=[N+]=[N-]` ? 1.05

Same again, this time with C=CCC(OC(C)=O)[C@@H]1[C@@H](N(Cc2ccc(-c3ccccc3)cc2)C(=O)Cc2ccc(F)cc2)c2cc(OCCCO)ccc2N1C(=O)Cc1ccc(OC)cc1 (some centres not stated) -0.241

Now consider C=CCC(OC(C)=O)[C@@H]1[C@@H](N(Cc2ccc(-c3cccc(C(F)(F)F)c3)o2)C(=O)c2ccc(C)cc2)c2cc(OCCCO)ccc2N1C(=O)c1ccc2ccccc2c1 (some centres not stated) . 0.313

Please do the same for CC(CO)N1C(=O)[C@@H]2[C@H]3C(=O)OCC=C[C@H]3OC23C=CCN(Cc2ccccc2)C(=O)[C@@H]13 (some centres not stated) as well. 0.0095

Proceed to C=CCC(OC(C)=O)[C@@H]1[C@@H](N(Cc2cccc3ccccc23)C(=O)c2cccc3ccccc23)c2cc(OCCCO)ccc2N1C(=O)c1ccc(-c2ccccc2)cc1 (some centres not stated) -0.287

Proceed to `COC(=O)[C@@]1(Cc2ccc(OC)cc2)[C@H]2c3cc(C(=O)N4CCCC4)n(Cc4c(-c5ccccc5)noc4C)c3C[C@H]2CN1C(=O)c1ccccc1` 1.04
